// data source = PubChem BioAssay (NCI)

Please respond with reported log10 TGI for every item in the list.
- Test system: SF-295 CNS
- Experiment Notes: NCI tumour cell line growth inhibition, 48 h
// stored as log10 of TGI expressed in µM

Use the examples below as a reference point.
CN(C)CCCn1c2c(c3ccncc3c1=O)C(=O)c1ccccc1-2 ... 1.01
O=C1N[C@@H](c2c[nH]c3ccc(Br)cc23)C(=O)N[C@H]1c1c[nH]c2ccc(Br)cc12 ... 1.40
C=CC(C)(C)c1cc([C@@H]2COc3cc(O)ccc3C2=O)c(O)c(OC)c1OC ... 1.44
Cc1ccc(S(=O)(=O)NC(CCCCN)C(=O)CCl)cc1 (stereo not drawn) ... 1.89
Nc1cc(N)c2nc(-c3ccccc3)c(Sc3ccc(F)cc3)nc2c1 ... 1.48

# batch: return log10 TGI for each of the 3 molecules below
1. Cc1cc(N2CCOCC2)nc(N(CCNc2ccnc3cc(Cl)ccc23)Cc2cccs2)n1
2. Cc1ccc(CCNC(=S)SCC(NC(=O)CCC(N)C(=O)O)C(=O)NCC(=O)O)cc1 (stereo not drawn)
3. OB1OCc2ccccc21

[0.50, 0.94, 1.61]

Quick one: give me log10 TGI for each item below, same order please.
1. Cc1nn(-c2ccccc2)c2ncc3c(c12)C(=O)N(Cc1ccccc1)C3=O
2. CCN(CC)CCC(CNc1c2ccc(Cl)cc2nc2ccc(OC)cc12)c1ccccc1 (stereo not drawn)
3. Nc1cc2[nH]c(=O)c3cc(Cl)ccc3c2cc1Cl

1: 1.03; 2: 0.48; 3: 1.65
